PROTOCOL: NCI Yeast Anticancer Drug Screen. Data for the mlh1 rad18 strain (AID 175)
DETAILS: S. cerevisiae mlh1 rad18 strain growth inhibition; at 50.0 µM; stronger effect = higher value
This is part of a sample that, as a whole, favours compounds with a hit. Of some 79,000 tested, about 15% had one in any assay.
MEASUREMENT TYPE: growth inhibition (%)
Please give a number only; it is taken to be in %.

>>> print(df.to_string())
                        compound  value
0  CC(C)(C)c1ccc(SC(=O)NCCCl)cc1  -11.2

Pending compound:
What measured growth inhibition goes with NC(Cc1ccc(O)cc1)C(=O)OCc1ccccc1 (stereo not given) ? -3.75

====

Parameter: growth inhibition. Scope: all listed entries.
PROTOCOL: NCI Yeast Anticancer Drug Screen. Data for the sgs1 mgt1 strain (AID 161);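 note: 0% = growth of cultures given vehicle only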
DETAILS: S. cerevisiae sgs1 mgt1 strain, at 50.0 µM, stronger effect = higher value
Compounds without any hit were thinned out: in the full panel of roughly 79,000, 15% have a hit.
// units = %; emit number, no label

For the molecule shown here, CC(C)CC(N)C(=O)OCN1C(=O)C2C3C=CC(C2C1=O)C1C2C(=O)N(COC(=O)C(N)CC(C)C)C(=O)C2C31 (stereo not given) , give the reported growth inhibition. 5.05

Entry under review: COc1ccc(-n2c(=O)c(N=Nc3ccccc3)c(O)n(-c3ccccc3OC)c2=S)cc1 . Reported growth inhibition? 40.5

For the molecule shown here, O=C(CP(=O)(c1ccccc1)c1ccccc1)c1cccc(C(=O)CP(=O)(c2ccccc2)c2ccccc2)c1 , give the reported growth inhibition. -7.05

// returns reported growth inhibition for input COc1cc(/C=N/NC(N)=O)cc(OC)c1O -34.4

Which growth inhibition is listed for C/C(=N/NC(=O)CC#N)c1ccccc1 ? 16.7

====

PROTOCOL: NCI Yeast Anticancer Drug Screen. Data for the rad50 strain (AID 155);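 note: 0% = growth of vehicle-only cultures of the same strain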
DETAILS: S. cerevisiae rad50 strain growth inhibition; at 50.0 µM
About 79,000 compounds went through this panel and 15% of them were active in at least one assay; those are over-represented in the sample as a whole. The source made the active and inactive calls. No stated cut-off is given here; in the data, active means growth inhibition above about 70%; inactive means the rest.
Reply using exactly one outcome from active, inactive

Consider the following illustrative entries.
COMPOUND	CLASS
CCN(CC)CCO/N=C(\c1ccccc1)c1ccccn1	inactive
C=COC(=O)C=C	inactive
CC(C)CCOc1ccc(C(N)=S)c2ccccc12	active
CC1OC(OC2C(OC(=O)[C@@H]3CC(C)(C)C[C@H]4C5=CC[C@@H]6[C@@]7(C)C[C@H](O)[C@H](OC8OC(CO)C(O)C(O)C8O)[C@@](C)(CO)[C@@H]7[C@H](O)C[C@@]6(C)[C@]5(C)CC[C@@]34C)OCC(O)C2O)C(O)C(O)C1O (stereo partly drawn)	inactive
C[Si](C)(C)Oc1cc(N=NNC2=CC(=O)c3ccccc3C2=O)c(O)c2ccccc12	inactive
Clc1cc2nc(C3CCCO3)[nH]c2cc1Cl (stereo not drawn)	inactive

Test call, this compound: CC(=O)Oc1cccc2c(/C=N/NC(N)=S)ncc(C)c12 active

Name the outcome recorded for O=C1OC(c2ccccc2)=N/C1=C/N1CCCC1C(=O)O (stereo not drawn) in the assay. inactive

Entry O=C1C(CO)=C[C@@H](O)[C@H]2O[C@@H]12 : call = ? inactive

Field: outcome | Entry: CC1(C)COC(C)(Cc2ccccc2)OC1 inactive

Status in this test for CC(C)Cc1c(N)nc(NCCCC(N)C(=O)O)[nH]c1=O (stereo not drawn) ? inactive

What call does the record list for Cc1nc(-n2nc(-c3ccccc3)cc2-c2ccccc2)sc1C(=O)/C=C/c1ccccc1 ? inactive

====

PROTOCOL: NCI Yeast Anticancer Drug Screen. Data for the mec2-1 strain (AID 157)
DETAILS: S. cerevisiae mec2-1 strain, at 50.0 µM, stronger effect = higher value
About 79,000 compounds went through this panel and 15% of them were active in at least one assay; those are over-represented in the sample as a whole.
Below is a list of entries, each paired with its recorded growth inhibition value.
Expressed in %, but write only the number.

Study these solved cases before continuing.
>>> print(df.to_string())
                                   compound   measurement_type  value
0  CCC(C(C)O)[N+](=O)[O-] (stereo unspecified)  growth inhibition   -1.1
1                     CCCNC(=O)Nc1ccccc1OCC  growth inhibition  -5.55

Requested read-out: growth inhibition. Entry: COc1ccc(CC[N+]2=Cc3cc(OC)c(OC)cc3CC2)cc1OC -2.8

So what does the record say about growth inhibition for O=C(Cc1ccccc1)NN1C(=O)/C(=C\c2cccc(O)c2)SC1=Nc1ccccc1 ? -18.9

What value of growth inhibition has been recorded for this entry: CCN(CC)CCC1(C(N)=O)Cc2ccccc2N(CC)c2ccccc21 (stereo unspecified) 10.6

Look up growth inhibition for this compound: CC(O)(c1cccc(OCc2ccccc2)c1)c1ccccn1 (stereo unspecified) 0.05

Please look up its growth inhibition: Cc1[nH]c2ccccc2c1C(c1ccccc1O)c1c(C)[nH]c2ccccc12 23.4

Need growth inhibition, item N#C/C(=C\Nc1ccccn1)C(=O)c1ccco1 -19.8

====

PROTOCOL: NCI Yeast Anticancer Drug Screen. Data for the mlh1 rad18 strain (AID 175)
DETAILS: S. cerevisiae mlh1 rad18 strain growth inhibition; at 50.0 µM; stronger effect = higher value
Description: Growth inhibition of yeast strains with defined genetic alterations is measured as a screen for potential anti-cancer activity. Selected strains with alterations in DNA damage repair or cell cycle control were exposed to compounds and growth inhibition was measured relative to vehicle treated controls. The strain used in this assay is mlh1 rad18
Compounds without any hit were thinned out: in the full panel of roughly 79,000, 15% have a hit. Where a SMILES comes first, the peptide text is derived from it. The star is where a group is joined. Cbz = O=C(OCc1ccccc1)*
Where growth inhibition equals or exceeds 10%, the correct label is 1.0; where it does not, the label is 0.0.

Illustrative cases are given below, each with its answer.
COMPOUND	CLASS
CN(C(=O)C(Cl)Cl)c1ccc(-c2csc(Cc3ccccc3)n2)cc1	1.0
Cn1ncc(=O)[nH]c1=O	0.0
ClC(Cl)(Cl)C(=NNc1ccccc1)C(Cl)(Cl)Cl	1.0
Cc1cc(C(=O)C[n+]2ccccc2)c(CN2C(=O)c3ccccc3C2=O)c(=O)n1C	0.0
COC1=C(NCC(C)C)C(=O)C(OC)=C(NCC(C)C)C1=O	0.0

Entry O=S(=O)(O)SCCCNCCCCCCCCNCCCSS(=O)(=O)O : is its growth inhibition no less than 10%? 0.0

Identify whether the reported growth inhibition of the following compound is 10% or greater: CCCCCCCCCCCCc1ccc(CS)cc1 1.0

Please check the record CC1NC(=O)c2c(-c3ccccc3)nn(-c3ccccc3)c2NC1=O (stereo not drawn) and state if its growth inhibition is at or above 10%. 0.0

Assess whether reported growth inhibition for CNC(=O)Nc1nnnc2ccccc12 sits at 10% or higher. 1.0

I'd appreciate it if you could say whether Cn1c(N)c(-n2[nH]c(=O)n(-c3ccccc3)c2=O)c(=O)n(C)c1=O has growth inhibition at least equal to 10%. 1.0

Hi team, for COC(=O)C(CO)NC(=O)C(CO)NC(=O)OCc1ccccc1 (stereo not drawn) (Cbz-Ser-Ser-OMe; configuration not given here) , is the recorded growth inhibition at or above 10%? 0.0

API: above_or_equal(metric=growth inhibition, cutoff=10%) for item CC(=O)NNc1nc(C)c(C(=O)NNC(=O)C(=O)Nc2ccc(C)c(C)c2)s1 0.0

Does Fc1ccc(-c2nc3ccccc3[nH]2)cc1 have a reported growth inhibition of at least 10%? 0.0

Dear colleague, could you confirm whether CNC(=S)N(C)/N=C/c1ccccc1 has growth inhibition at or above 10%? 0.0

Decide: is the reported value of growth inhibition for COC(=O)CN(c1c(C)cc(C)c(N)c1C)S(=O)(=O)c1ccccc1 equal to or greater than 10%? 0.0

Say whether CCCCCC(=O)O shows growth inhibition of 10% or more. 1.0

Assess whether reported growth inhibition for CN(C)c1ccc(/C=C/c2ccc(/C=C/c3ccc(N(C)C)cc3)cc2)cc1 sits at 10% or higher. 1.0

====

growth inhibition for assorted compounds
PROTOCOL: NCI Yeast Anticancer Drug Screen. Data for the bub3 strain (AID 167)
DETAILS: S. cerevisiae bub3 mutant strain, at 50.0 µM, stronger effect = higher value
This is part of a sample that, as a whole, favours compounds with a hit. Of some 79,000 tested, about 15% had one in any assay.
Dear colleague, please return just the value in %, with no unit written.

Some solved cases for reference:
                                   compound  value
0     O=C(O)Cc1ccc(N2N=C(c3ccccc3)CC2=O)cc1   22.4
1  COC(=O)C1=C(C(=O)OC)N(C(C)C)[C@H]2C(C(=O)OC)=C(C(=O)OC)N(C(C)C)[C@@H]12  -34.8
2                S=C(NCc1ccncc1)Nc1ccccc1Cl    6.1
3  COc1cccc(-c2nc(SCC(N)=O)[nH]c(=O)c2C#N)c1   17.5

Param item = CC(=O)NC(C(=O)NC(CSCc1ccccc1)C(=O)O)=C(C)C (stereo not drawn) ; retrieve measured growth inhibition. -36.4

Requested field: growth inhibition. Item: COc1ccc(Cl)cc1NC(=O)c1cccc([N+](=O)[O-])c1O 8.65

Query (compound): CC1(C)CC(NC(=O)C(C)(C)Oc2ccc(Cl)cc2)CC(C)(C)N1 ; field requested: growth inhibition 9.15

Any idea what its growth inhibition is? The compound is O=C1OCCc2c1[nH]c1ccccc21 13.5

Quick one: growth inhibition for COc1cc(CCCCC(=O)O)cc(Br)c1OC ? 29.8

Given CN(C)c1nc(=Nc2ccc3c(c2)OCO3)ss1 , state its recorded growth inhibition. 16.9

What growth inhibition value was documented for this compound, C=C(C)C(=O)OCCOCC(CC)CCCC (stereo not drawn) ? -3.35

Dear colleague, I am looking for the recorded growth inhibition of the following compound: O=C(Nc1ccc(N=Nc2ccccc2)cc1)c1ccc(Cl)cc1 2.35

Record request: growth inhibition value, item O=C(CCCCCCC(=O)ON1C(=O)CCC1=O)ON1C(=O)CCC1=O -24.4
